Recorded values, source ChEMBL document CHEMBL4411303.

# reported inhibition of growth at 0.16 µM; entries follow
System: Candida albicans
Assay Procedure: Antifungal activity against Candida albicans ATCC 90028 assessed as planktonic growth inhibition at 0.16 uM after 48 hrs by M27-A3 protocol based method relative to control
Assay type: functional
Condition Notes: ATCC 90028, 48 h, read-out: GI

{"Molecule": "Fc1ccc(C2CCCN2CCCn2nnc(-c3ccccc3Cl)n2)cc1 (centres undefined)", "inhibition of growth at 0.16 µM / %": 98.7}
{"Molecule": "Clc1ccc(-c2nnn(CCCN3CCCC3c3ccc(Cl)cc3)n2)cc1 (centres undefined)", "inhibition of growth at 0.16 µM / %": 99.5}
{"Molecule": "Cc1cccc(C2CCCN2CCCn2nnc(-c3ccccc3Cl)n2)c1 (centres undefined)", "inhibition of growth at 0.16 µM / %": 99.1}
{"Molecule": "Cc1ccc(-c2nnn(CCCN3CCCC3c3ccc(Cl)cc3)n2)cc1 (centres undefined)", "inhibition of growth at 0.16 µM / %": 99.5}
{"Molecule": "Cc1cccc(C2CCCN2CCCn2nnc(-c3ccc(Cl)cc3)n2)c1 (centres undefined)", "inhibition of growth at 0.16 µM / %": 99.3}
{"Molecule": "Cc1ccc(C2CCCN2CCCn2nnc(-c3ccccc3Cl)n2)cc1 (centres undefined)", "inhibition of growth at 0.16 µM / %": 98.9}
{"Molecule": "Cc1ccc(C2CCCN2CCCn2nnc(-c3ccc(Cl)cc3)n2)cc1 (centres undefined)", "inhibition of growth at 0.16 µM / %": 99.1}
{"Molecule": "Clc1ccc(C2CCCN2CCCn2nnc(-c3ccccc3Cl)n2)cc1 (centres undefined)", "inhibition of growth at 0.16 µM / %": 98.9}
{"Molecule": "Fc1ccc(C2CCCN2CCCn2nnc(-c3ccc(Cl)cc3)n2)cc1 (centres undefined)", "inhibition of growth at 0.16 µM / %": 99.4}

###

Assay Procedure: Toxicity in Galleria mellonella larvae assessed as survival rate at 47.9 uM measured after 48 hrs (reference value: 100%)
Property Name: survival at 48 h, 47.9 µM (%)

{"Compound": "c1ccc(-c2nnn(CCCN3CCCC3c3ccccc3)n2)cc1 (stereo unspecified)", "Property Name": "survival at 48 h, 47.9 µM", "Endpoint Value": 100}
